Numbers sourced from paper PMC3961306.

Could you please report measured %-inhibition of RET for the items listed next?
Target: panel of more than 300 wild-type and mutant kinases (313 kinase panel) (Homo sapiens, UniProt P07949)
Sequence (P07949 29-1114, change not shown): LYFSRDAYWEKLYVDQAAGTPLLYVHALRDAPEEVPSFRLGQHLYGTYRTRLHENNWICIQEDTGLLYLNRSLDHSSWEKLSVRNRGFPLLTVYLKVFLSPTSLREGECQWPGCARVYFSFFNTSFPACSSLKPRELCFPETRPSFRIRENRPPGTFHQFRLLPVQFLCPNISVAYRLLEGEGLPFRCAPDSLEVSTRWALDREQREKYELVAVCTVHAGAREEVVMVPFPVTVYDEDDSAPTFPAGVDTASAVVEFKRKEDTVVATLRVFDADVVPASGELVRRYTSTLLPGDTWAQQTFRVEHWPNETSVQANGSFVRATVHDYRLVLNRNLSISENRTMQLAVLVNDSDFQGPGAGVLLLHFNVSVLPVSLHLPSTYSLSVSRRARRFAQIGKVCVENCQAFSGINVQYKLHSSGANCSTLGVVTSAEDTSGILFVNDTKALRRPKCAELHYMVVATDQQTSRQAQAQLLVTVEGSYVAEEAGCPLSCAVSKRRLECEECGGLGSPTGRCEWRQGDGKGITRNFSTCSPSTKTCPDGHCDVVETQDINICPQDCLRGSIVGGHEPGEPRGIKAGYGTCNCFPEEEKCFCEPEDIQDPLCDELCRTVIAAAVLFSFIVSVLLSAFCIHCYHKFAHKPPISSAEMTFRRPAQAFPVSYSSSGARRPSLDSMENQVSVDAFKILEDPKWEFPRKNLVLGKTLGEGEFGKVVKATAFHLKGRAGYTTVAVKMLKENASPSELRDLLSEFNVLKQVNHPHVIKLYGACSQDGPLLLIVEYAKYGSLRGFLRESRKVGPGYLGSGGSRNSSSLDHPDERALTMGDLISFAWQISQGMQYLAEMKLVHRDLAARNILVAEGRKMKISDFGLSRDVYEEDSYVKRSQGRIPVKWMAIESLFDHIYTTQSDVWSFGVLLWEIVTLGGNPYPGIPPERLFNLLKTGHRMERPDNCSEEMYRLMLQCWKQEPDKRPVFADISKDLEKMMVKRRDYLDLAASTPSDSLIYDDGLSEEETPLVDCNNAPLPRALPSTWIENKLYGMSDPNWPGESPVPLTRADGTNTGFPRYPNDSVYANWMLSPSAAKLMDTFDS
Experiment: Kinase profiling in a biochemical assay panel (mobility shift assays and ELISA), %-inhibition at 1 μM; selectivity entropy
Conditions: 1 µM
Enter your answer as a number in %; do not include the unit.

Which %-inhibition of RET value is on record for Cc1cn(-c2cc(NC(=O)c3ccc(C)c(Nc4nccc(-c5cccnc5)n4)c3)cc(C(F)(F)F)c2)cn1 ?
31

Which %-inhibition of RET value is on record for CS(=O)(=O)CCNCc1ccc(-c2ccc3ncnc(Nc4ccc(OCc5cccc(F)c5)c(Cl)c4)c3c2)o1 ?
-0.304

Which %-inhibition of RET value is on record for C#Cc1cccc(Nc2ncnc3cc(OCCOC)c(OCCOC)cc23)c1 ?
70

Which %-inhibition of RET value is on record for CNC(=O)c1cc(Oc2ccc(NC(=O)Nc3ccc(Cl)c(C(F)(F)F)c3)c(F)c2)ccn1 ?
102

====

Could you please report measured %-inhibition of FES for the items listed next?
Target: panel of more than 300 wild-type and mutant kinases (313 kinase panel) (Homo sapiens)
Test: Kinase profiling in a biochemical assay panel (mobility shift assays and ELISA), %-inhibition at 1 μM; selectivity entropy
Conditions: kinase FES; compound at 1 μM
Enter your answer as a number in %; do not include the unit.

Which %-inhibition of FES value is on record for COc1cc2c(Nc3ccc(Br)cc3F)ncnc2cc1OCC1CCN(C)CC1 [vandetanib] ?
-3.7

Which %-inhibition of FES value is on record for Cc1cn(-c2cc(NC(=O)c3ccc(C)c(Nc4nccc(-c5cccnc5)n4)c3)cc(C(F)(F)F)c2)cn1 [nilotinib] ?
-19

Which %-inhibition of FES value is on record for COc1cc2nccc(Oc3ccc(NC(=O)C4(C(=O)Nc5ccc(F)cc5)CC4)cc3)c2cc1OC [cabozantinib] ?
39

Which %-inhibition of FES value is on record for CS(=O)(=O)CCNCc1ccc(-c2ccc3ncnc(Nc4ccc(OCc5cccc(F)c5)c(Cl)c4)c3c2)o1 [lapatinib] ?
5

Which %-inhibition of FES value is on record for N#CC[C@H](C1CCCC1)n1cc(-c2ncnc3[nH]ccc23)cn1 [ruxolitinib] ?
3

Which %-inhibition of FES value is on record for CO[C@H]1C[C@@H]2CC[C@@H](C)[C@@](O)(O2)C(=O)C(=O)N2CCCC[C@H]2C(=O)O[C@H]([C@H](C)C[C@@H]2CC[C@@H](OC(=O)C(C)(CO)CO)[C@H](OC)C2)CC(=O)[C@H](C)/C=C(\C)[C@@H](O)[C@@H](OC)C(=O)[C@H](C)C[C@H](C)/C=C/C=C/C=C/1C [temsirolimus] ?
-4.68

Which %-inhibition of FES value is on record for CC(=O)Nc1cccc(-n2c(=O)n(C3CC3)c(=O)c3c(Nc4ccc(I)cc4F)n(C)c(=O)c(C)c32)c1 [trametinib] ?
-1.55

Which %-inhibition of FES value is on record for CC(C)(C)c1nc(-c2cccc(NS(=O)(=O)c3c(F)cccc3F)c2F)c(-c2ccnc(N)n2)s1 [dabrafenib] ?
2.29

Which %-inhibition of FES value is on record for CO[C@H]1C[C@@H]2CC[C@@H](C)[C@@](O)(O2)C(=O)C(=O)N2CCCC[C@H]2C(=O)O[C@H]([C@H](C)C[C@@H]2CC[C@@H](OCCO)[C@H](OC)C2)CC(=O)[C@H](C)/C=C(\C)[C@@H](O)[C@@H](OC)C(=O)[C@H](C)C[C@H](C)/C=C/C=C/C=C/1C [everolimus] ?
-2.38

Which %-inhibition of FES value is on record for CCCS(=O)(=O)Nc1ccc(F)c(C(=O)c2c[nH]c3ncc(-c4ccc(Cl)cc4)cc23)c1F [vemurafenib] ?
18

Which %-inhibition of FES value is on record for O=S(=O)(c1cccc2cnccc12)N1CCCNCC1 [fasudil] ?
-3.78

Which %-inhibition of FES value is on record for CNC(=O)c1cc(Oc2ccc(NC(=O)Nc3ccc(Cl)c(C(F)(F)F)c3)c(F)c2)ccn1 [regorafenib] ?
-0.247
